Source: patent US7101851

# assayedTarget: T1, alpha subunit of the human FcεRI receptor (IgE high affinity receptor), expressed on Chinese hamster ovary … (human, UniProt P12319 26-257)
# T1 construct: whole, on cells; also called CHO FcεRI+ cells; FcεRIα
# T1 sequence (looked up): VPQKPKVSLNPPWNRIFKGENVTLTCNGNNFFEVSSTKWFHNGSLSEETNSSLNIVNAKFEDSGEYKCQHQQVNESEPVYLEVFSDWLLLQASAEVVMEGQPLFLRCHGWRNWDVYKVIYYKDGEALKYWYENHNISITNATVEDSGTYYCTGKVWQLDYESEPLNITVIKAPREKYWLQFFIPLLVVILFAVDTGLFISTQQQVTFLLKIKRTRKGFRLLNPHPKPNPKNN
# protocolDetails: inhibition of 125I-IgE binding to CHO cells expressing human FcεRI alpha; competitor IgE
pIC50: −log10 of the molar value. Where no end group is shown, it is not given here. [ ]: non-standard residue; d: D form. Ava = NCCCCC(=O)O
Could you label it MET if measured pIC50 is 7 or higher, and NOT MET otherwise?

binder	labelValue
VQCPDFCY[Ava]LCPDVCYV-NH2 (disulfide (positions not given here); not fully specified (bridges); printed as VQCPDFCYavaLCPDVCYV-nh2) [IGE199]	NOT MET

Does the binder VQCPDFCYFGGAELCPDVCYV-NH2 (not fully specified (bridges); cysteine pairing not given here) [IGE191] have recorded pIC50 that is 7 or more?
NOT MET

// query: VQCPHFCYELDYELCPWVCYV-NH2 (not fully specified (bridges); cysteine pairing not given here) [IGE175]
MET

// query: VQCPHFCY[Ava]LCPDVCYV-NH2 (disulfide (positions not given here); not fully specified (bridges); printed as VQCPHFCYavaLCPDVCYV-nh2) [IGE198]
NOT MET
